src = PubChem BioAssay (NCI)

# Tested on: IGROV1 ovarian
# assay-text: NCI tumour cell line growth inhibition, 48 h; in the data active = GI50 below about 0.43 µM; inactive = the rest
Pick one: active, inactive

For orientation, consider the following solved cases.
compound	class-name
COc1ccc(/C=c2/sc3n(c2=O)C(c2ccc(OC)c(OC)c2)C2=C(N=3)c3cc(F)ccc3OC2)cc1 (stereo unspecified)	inactive
COc1cc(/C=C2\C(=O)Nc3ccc(F)cc32)cc(OC)c1OC	inactive
CC(=O)c1c(CBr)n([O-])c2ccccc2[n+]1=O	inactive
O=C(N/N=C\c1cc(Br)ccc1O)c1ccncc1	inactive
O=C(Nc1cccc(Cl)c1Cl)c1cccc(NC2=C(Cl)C(=O)N(Cc3ccccc3)C2=O)c1	inactive
COC(=O)[C@@H](NC(=O)[C@@H](OC)[C@@H]1Cc2cc3cc(OC4CC(OC5CC(O)C(O)C(C)O5)C(O)C(C)O4)c(C)c(O)c3c(O)c2C(=O)[C@H]1OC1CC(OC2CC(OC3CC(C)(O)C(O)C(C)O3)C(O)C(C)O2)C(O)C(C)O1)C(C)C (stereo partly specified)	active
C#CC(=O)Nc1cccc(Nc2nc3c(c(NCc4ccccc4)n2)CCCC3)c1	active
CCN(CC)CC(C)(C)C(=O)/C=C/c1ccc(Cl)c(Cl)c1	inactive

I would be grateful if you could indicate the recorded call for COc1ccc(-c2cc(-c3cccn3C)c(C#N)c(N)n2)cc1OC . inactive

I would be grateful if you could indicate the recorded call for CC(=O)O[C@@H]1C[C@]2(C(C)C)O[C@@]1(C)[C@@H]1CCC(C)=C1[C@@H]2OC(=O)/C=C/c1ccccc1 . inactive

I would be grateful if you could indicate the recorded call for COc1cc(NC(C)CCCN)c2nccc(C)c2c1OC (stereo unspecified) . inactive

I would be grateful if you could indicate the recorded call for CCN(CC)CCNCC(=O)Oc1ccc(/C=C/C(=O)CC(=O)/C=C/c2ccc(OC(=O)CNCCN(CC)CC)c(OC)c2)cc1OC . inactive

I would be grateful if you could indicate the recorded call for O=C1c2ccn(CCCCNC(CO)(CO)CO)c2C(=O)c2c1c(O)c1ccccc1c2O . inactive

I would be grateful if you could indicate the recorded call for O=C(CCCN1CC=C(n2c(=O)[nH]c3ccccc32)CC1)c1ccc(F)cc1 . inactive

I would be grateful if you could indicate the recorded call for Fc1ccc(Nc2cc(-n3nnc4ccccc43)nc3ccccc23)cc1 . inactive

I would be grateful if you could indicate the recorded call for CN(C)c1ccc2nc3ccc(=O)cc-3sc2c1 . inactive

I would be grateful if you could indicate the recorded call for CN(C)Cc1c[nH]c2c1C(=O)c1c(c(O)c3ccccc3c1O)C2=O . inactive

---

# Test system: NCI-H460 lung
# assay-text: NCI tumour cell line growth inhibition, 48 h
// TGI lookup, one value per entry
Numbers only; they are read as µM.

For orientation, consider the following solved cases.
                            compound_smiles  endpoint_label  meas_value
0  O=C(O)c1ccccc1-c1ccccc1C(=O)Nc1ccc2c(c1)Cc1cc(F)ccc1-2             TGI        68.2
1  Cc1cc(C)cc(C(=N)c2ccccc2Cc2cccc3ccccc23)c1             TGI        29.5

// switching to the query compound
Sample CCOC(=O)CCc1c(C)c2c(OC(C)=O)cc(OC(C)=O)cc2oc1=O ; TGI observed: 91.1
